These entries and their values trace back to paper PMC7721897.

Test: Tissue distribution of PZ-DHA and metabolites after intraperitoneal injection
Type: in vivo, Balb/c female mice
Details: female, Balb/c, mouse, spleen/serum, intraperitoneal, 100 mg/kg; 240 min; read-out: Tissue/serum ratio of PZ-DHA (Mean ± SD) Spleen/serum
Measured property: Kp at 240 min
Give the figure by itself; no unit, no explanation.

**Query** Check the records and state Kp at 240 min for CC/C=C\C/C=C\C/C=C\C/C=C\C/C=C\C/C=C\CCC(=O)OC[C@H]1O[C@@H](Oc2cc(O)cc(O)c2C(=O)CCc2ccc(O)cc2)[C@H](O)[C@@H](O)[C@@H]1O [PZ-DHA, phloridzin docosahexaenoate]
**Result** 16.1

====

Assay: Tissue distribution of PZ-DHA and metabolites after intraperitoneal injection
Format: in vivo, Balb/c female mice
Conditions: female, Balb/c, mouse, brain/serum, intraperitoneal, 100 mg/kg; 90 min; read-out: Tissue/serum ratio of PZ-DHA (Mean ± SD) Brain/serum
Measured property: Kp at 90 min

**Query** Check the records and state Kp at 90 min for CC/C=C\C/C=C\C/C=C\C/C=C\C/C=C\C/C=C\CCC(=O)OC[C@H]1O[C@@H](Oc2cc(O)cc(O)c2C(=O)CCc2ccc(O)cc2)[C@H](O)[C@@H](O)[C@@H]1O [PZ-DHA, phloridzin docosahexaenoate]
**Result** 1.01

====

Assay: Tissue distribution of PZ-DHA and metabolites after intraperitoneal injection
Assay type: in vivo, Balb/c female mice
Conditions: female, Balb/c, mouse, brain/serum, intraperitoneal, 100 mg/kg; 60 min; read-out: Tissue/serum ratio of PZ-DHA (Mean ± SD) Brain/serum
Measured property: Kp at 60 min
Give the figure by itself; no unit, no explanation.

**Query** Check the records and state Kp at 60 min for CC/C=C\C/C=C\C/C=C\C/C=C\C/C=C\C/C=C\CCC(=O)OC[C@H]1O[C@@H](Oc2cc(O)cc(O)c2C(=O)CCc2ccc(O)cc2)[C@H](O)[C@@H](O)[C@@H]1O [PZ-DHA, phloridzin docosahexaenoate]
**Result** 0.95

====

Assay: Tissue distribution of PZ-DHA and metabolites after intraperitoneal injection
Format: in vivo, Balb/c female mice
Conditions: female, Balb/c, mouse, liver/serum, intraperitoneal, 100 mg/kg; 120 min; read-out: Tissue/serum ratio of PZ-DHA (Mean ± SD) Liver/serum
Procedure: Figure 5 PZ-DHA and metabolites were detected in various organs of PZ-DHA-treated Balb/c female mice. PZ-DHA (100 mg/kg) was administered by intraperitoneal injection to Balb/c female mice and liver, lungs, kidneys, spleen and brain were harvested. Organs were homogenized and PZ-DHA in (A) liver, kidneys, lungs, spleen, and brain was identified and quantified using a calibration curve. […]
Measured property: Kp at 120 min
Give the figure by itself; no unit, no explanation.

**Query** Check the records and state Kp at 120 min for CC/C=C\C/C=C\C/C=C\C/C=C\C/C=C\C/C=C\CCC(=O)OC[C@H]1O[C@@H](Oc2cc(O)cc(O)c2C(=O)CCc2ccc(O)cc2)[C@H](O)[C@@H](O)[C@@H]1O [PZ-DHA, phloridzin docosahexaenoate]
**Result** 1.03

====

Assay: Tissue distribution of PZ-DHA and metabolites after intraperitoneal injection
Format: in vivo, Balb/c female mice
Conditions: female, Balb/c, mouse, spleen/serum, intraperitoneal, 100 mg/kg; 15 min; read-out: Tissue/serum ratio of PZ-DHA (Mean ± SD) Spleen/serum
Measured property: Kp at 15 min

**Query** Check the records and state Kp at 15 min for CC/C=C\C/C=C\C/C=C\C/C=C\C/C=C\C/C=C\CCC(=O)OC[C@H]1O[C@@H](Oc2cc(O)cc(O)c2C(=O)CCc2ccc(O)cc2)[C@H](O)[C@@H](O)[C@@H]1O [PZ-DHA, phloridzin docosahexaenoate]
**Result** 3.29
